FYI, the data here is from ChEMBL document CHEMBL1268838.

# System: MDA-MB-231
# experiment_summary: Cytotoxicity against human MDA-MB-231 cells after 72 hrs by MTT assay
# Format: functional, cell-based
# condition_parameters: MDA-MB-231, 72 h
pIC50: −log10 of the molar value.
measured_metric: pIC50

{"columns": ["chemical_smiles", "measured_metric", "reported_relation", "readout_value"],
 "data": [
  ["COc1ccc(C(=O)Oc2ccc(/C=C/[N+](=O)[O-])cc2OC)cc1", "pIC50", "=", 4.74],
  ["Cc1ccc(/C=C/[N+](=O)[O-])cc1", "pIC50", "<", 4.70],
  ["COc1cc(/C=C/[N+](=O)[O-])ccc1OC(=O)c1cc(F)c(F)c(F)c1", "pIC50", "=", 4.91],
  ["COc1cc(/C=C/[N+](=O)[O-])ccc1OC(=O)c1ccc(C(F)(F)F)cc1", "pIC50", "<", 4.70],
  ["COc1cc(/C=C/[N+](=O)[O-])ccc1OC(=O)c1ccc(C(C)(C)C)cc1", "pIC50", "<", 4.70],
  ["O=[N+]([O-])/C(O)=C/c1ccccc1", "pIC50", "=", 4.86],
  ["O=[N+]([O-])/C=C/c1ccc2c(c1)OCO2", "pIC50", "=", 4.85],
  ["COc1cc(/C=C/[N+](=O)[O-])ccc1OC(=O)c1ccc(F)cc1", "pIC50", "=", 5.01],
  ["COc1ccc(/C=C/[N+](=O)[O-])cc1", "pIC50", "=", 4.79],
  ["COc1cc(/C=C/[N+](=O)[O-])ccc1OC(=O)c1ccccc1Cl", "pIC50", "<", 4.70],
  ["COc1cc(/C=C/[N+](=O)[O-])ccc1OC(=O)c1cccc(Cl)c1Cl", "pIC50", "<", 4.70]
]}
